Tested on: A498 renal
EXPERIMENTAL_PROTOCOL: NCI tumour cell line growth inhibition, 48 h
Reported GI50 values are given for each entry in this list.

COMPOUND: Cc1ccc2nc(-c3ccc(OCC(=O)N=Nc4c(O)[nH]c5ccccc45)cc3)[nH]c2c1
GI50: > 100 µM
//
COMPOUND: CC1CN(S(=O)(=O)c2oc(-c3ccc(Cl)cc3)nc2C#N)CC(C)O1 (stereo unspecified)
GI50: 14.4 µM
//
COMPOUND: Cc1cc(Nc2nc(C(=O)Nc3ccccc3)nc3ccccc23)n[nH]1
GI50: 1.05 µM
//
COMPOUND: CCN1CCN(Cc2ccc(NC(=O)Nc3nc4ccc(Oc5ccnc(C(=O)NC)c5)cc4s3)cc2C(F)(F)F)CC1
GI50: 1.83 µM
//
COMPOUND: CCCCCN(CCCCC)CC(O)c1cc(Cl)ccc1OC (stereo unspecified)
GI50: 11.6 µM
//
COMPOUND: CC(C)c1nc(N(C)S(C)(=O)=O)nc(-c2ccc(F)cc2)c1/C=C/[C@@H](O)C[C@@H](O)CC(=O)O
GI50: 3.57 µM
//
COMPOUND: N#C/C(=C\c1ccc([N+](=O)[O-])s1)c1nc2cc(Cl)ccc2s1
GI50: 3.56 µM
//
COMPOUND: Cn1cccc1-c1cc(-c2ccccc2)[nH]c(=O)c1C#N
GI50: 25.6 µM
//
COMPOUND: O=c1c2cc(-c3ccccc3)sc2ncn1Cc1ccc(Cl)c(Cl)c1
GI50: 19.4 µM
//
COMPOUND: Cc1cc(C)c2c(n1)sc1c(N)ncnc12
GI50: 4.9 µM
//
COMPOUND: COc1ccc2c(c1OC)-c1c(c3ccc([N+](=O)[O-])cc3c(=O)n1CCCBr)C2=O
GI50: > 100 µM
//
COMPOUND: COc1ccc(/C=C/C(=O)c2ccc(-n3cc(CN4CCN(c5cc6c(cc5F)c(=O)c(C(=O)O)cn6C5CC5)CC4)nn3)cc2)cc1OC
GI50: 4.18 µM
//
COMPOUND: CCN(Cc1cc(F)ccc1F)c1ccc(CO)c(Cl)c1
GI50: 0.0298 µM
//
COMPOUND: O=C(/C=C/c1ccc(C(F)(F)F)cc1)Nc1ccc(C=C2c3ccccc3C(=O)c3ccccc32)cc1
GI50: 2.6 µM
//
COMPOUND: C=C/C(C)=C/C[C@]1(C)[C@H](C)[C@@H](OC(=O)CCC)[C@H](O)[C@@]23C(=C[C@H](OC)C[C@@H]12)[C@@H](OC(=O)CCC)O[C@H]3OC(C)=O
GI50: 0.223 µM
//
COMPOUND: CN(Cc1ccc(C(F)(F)F)cc1)CC(O)C(=O)Nc1ccc(Cl)cc1 (stereo unspecified)
GI50: 1.38 µM

---

Tested on: MDA-N
EXPERIMENTAL_PROTOCOL: NCI tumour cell line growth inhibition, 48 h
PARAMETER_MEASURED: TGI

COMPOUND: CCc1ccccc1NC(=O)/C=C/c1ccccc1
VALUE_MEASURED: > 100 µM
--
COMPOUND: O=S(=O)(O)c1cccc2cccc(N=Nc3c(O)ccc4ccccc34)c12
VALUE_MEASURED: > 100 µM
--
COMPOUND: Cc1c(OCc2ccccc2)c(=O)ccn1CCc1c[nH]c2ccccc12
VALUE_MEASURED: 79.9 µM
--
COMPOUND: NC(Cc1c[nH]c2cc([N+](=O)[O-])ccc12)C(=O)O (stereo unspecified)
VALUE_MEASURED: > 100 µM
--
COMPOUND: Cc1ccc(S(=O)(=O)[C@@H](Cl)[C@H]2N=C(Cl)NN=C2c2ccccc2)cc1
VALUE_MEASURED: 74.4 µM
--
COMPOUND: O=C1CC(C(CC(=O)c2ccccc2)c2ccccc2)C(=O)c2ccccc2N1 (stereo unspecified)
VALUE_MEASURED: > 100 µM

---

Catalogue of TGI readings, one per entry.
System: U251 CNS
EXPERIMENTAL_PROTOCOL: NCI tumour cell line growth inhibition, 48 h

COMPOUND: Nc1nccc(NCC2(CO)CCC2)n1
TGI: > 100 µM

COMPOUND: COc1cccc(CN(C)c2ccc(CO)c(Cl)c2)c1
TGI: > 64.1 µM

COMPOUND: Cc1ccc(N(O)C(C)(C)C)cc1
TGI: > 100 µM

COMPOUND: Cc1ccc(NC2=NCCO2)c2c1CCC2
TGI: > 100 µM

COMPOUND: CCOc1ccc(N=NC2C(=O)N(C(=O)CC(=O)Nc3ccccc3)N=C2C)cc1 (stereo unspecified)
TGI: > 100 µM

COMPOUND: Cc1ccc(Sc2ccccc2[N+](=O)[O-])cc1
TGI: 61.7 µM

COMPOUND: Cc1nnc2n(c1=O)CCN2C
TGI: > 100 µM

COMPOUND: O=[N+]([O-])c1ccc2oc(=Nc3ccccc3)c(Nc3ccccc3)nc2c1
TGI: > 100 µM

COMPOUND: CN1N=C(c2ccncc2)OC1c1cccc(C(F)(F)F)c1 (stereo unspecified)
TGI: > 100 µM

COMPOUND: COC(=O)c1c(C)cccc1C1CN=NC12Cc1ccc(C)c(C)c1C2=O (stereo unspecified)
TGI: > 100 µM

COMPOUND: C=C1C(=O)O[C@H]2[C@H]1CC/C(COC(=O)NCc1ccc(OC)cc1)=C\CC[C@@]1(C)O[C@@H]21
TGI: 16.2 µM

---

Let's look at some compounds and their measured TGI.
System: A498 renal
EXPERIMENTAL_PROTOCOL: NCI tumour cell line growth inhibition, 48 h
Where a SMILES comes first, the peptide text is derived from it. The star is where a group is joined. Boc = CC(C)(C)OC(=O)*; OBn = c1ccc(CO*)cc1
PARAMETER_MEASURED: TGI

COMPOUND: CN(C)CCNC(=O)c1ccc(-c2nc3ccc4[nH]ncc4c3c3c2C2CCC3C2)cc1 (centres undefined)
EXPERIMENTAL_SYSTEM: A498 renal
PARAMETER_MEASURED: TGI
VALUE_MEASURED: 1.22 µM
--
COMPOUND: COc1ccccc1N=Nc1c(O)c(S(=O)(=O)O)cc2cc(S(=O)(=O)O)ccc12
EXPERIMENTAL_SYSTEM: A498 renal
PARAMETER_MEASURED: TGI
VALUE_MEASURED: > 100 µM
--
COMPOUND: Cc1ccc(NC2=NCCO2)c2c1CCC2
EXPERIMENTAL_SYSTEM: A498 renal
PARAMETER_MEASURED: TGI
VALUE_MEASURED: > 100 µM
--
COMPOUND: NC(Cc1c[nH]c2cc([N+](=O)[O-])ccc12)C(=O)O (centres undefined)
EXPERIMENTAL_SYSTEM: A498 renal
PARAMETER_MEASURED: TGI
VALUE_MEASURED: > 100 µM
--
COMPOUND: COc1cc(C2C(Cl)C(=O)N2NC(=O)c2ccc(NC(C)=O)cc2)ccc1O (centres undefined)
EXPERIMENTAL_SYSTEM: A498 renal
PARAMETER_MEASURED: TGI
VALUE_MEASURED: > 100 µM
--
COMPOUND: CCOC(=O)c1c(C)nc2c(c1-c1cn(-c3ccccc3)nc1-c1ccccc1)C(=O)c1ccccc1-2
EXPERIMENTAL_SYSTEM: A498 renal
PARAMETER_MEASURED: TGI
VALUE_MEASURED: > 100 µM
--
COMPOUND: CC(C)(O)C1CC[C@]2(C)[C@H]3CC[C@@H]4[C@@]5(C)CCCC(C)(C)[C@@H]5CC[C@@]4(C)[C@]3(C)CC[C@@H]12 (some centres undefined)
EXPERIMENTAL_SYSTEM: A498 renal
PARAMETER_MEASURED: TGI
VALUE_MEASURED: > 100 µM
--
COMPOUND: CCc1ccccc1NC(=O)/C=C/c1ccccc1
EXPERIMENTAL_SYSTEM: A498 renal
PARAMETER_MEASURED: TGI
VALUE_MEASURED: > 100 µM
--
COMPOUND: NC(=O)c1cc(N(CCO)CCO)c([N+](=O)[O-])cc1[N+](=O)[O-]
EXPERIMENTAL_SYSTEM: A498 renal
PARAMETER_MEASURED: TGI
VALUE_MEASURED: > 100 µM
--
COMPOUND: CSc1ncc(Br)c(Sc2nc(N)nc3nc[nH]c23)n1
EXPERIMENTAL_SYSTEM: A498 renal
PARAMETER_MEASURED: TGI
VALUE_MEASURED: 29 µM
--
COMPOUND: Cc1cn(C2CC(CCCO)C(CO)O2)c(=O)[nH]c1=O (centres undefined)
EXPERIMENTAL_SYSTEM: A498 renal
PARAMETER_MEASURED: TGI
VALUE_MEASURED: > 100 µM
--
COMPOUND: COC(=O)NNC(c1ccc(Cl)cc1)c1ccc(Cl)cc1
EXPERIMENTAL_SYSTEM: A498 renal
PARAMETER_MEASURED: TGI
VALUE_MEASURED: 34.9 µM
--
COMPOUND: N#C/C(=C\c1ccc([N+](=O)[O-])s1)c1nc2cc(Cl)ccc2s1
EXPERIMENTAL_SYSTEM: A498 renal
PARAMETER_MEASURED: TGI
VALUE_MEASURED: > 100 µM
--
COMPOUND: Cc1nc2ccc(Br)cc2c(=O)n1-c1ccc(NC2OCC(O)C(O)C2O)cc1 (centres undefined)
EXPERIMENTAL_SYSTEM: A498 renal
PARAMETER_MEASURED: TGI
VALUE_MEASURED: > 100 µM
--
COMPOUND: C[Si](C)(C)C(CCCCSc1ccccc1)(Sc1ccccc1)Sc1ccccc1
EXPERIMENTAL_SYSTEM: A498 renal
PARAMETER_MEASURED: TGI
VALUE_MEASURED: > 100 µM
--
COMPOUND: O=C1C2=C(C(=O)c3cnccc31)C1C=CC2CC1 (centres undefined)
EXPERIMENTAL_SYSTEM: A498 renal
PARAMETER_MEASURED: TGI
VALUE_MEASURED: 29.7 µM
--
COMPOUND: COc1cc2ncnc(-n3ncc4cc(NC(=O)Nc5ccc(Cl)c(Cl)c5)ccc43)c2cc1OC
EXPERIMENTAL_SYSTEM: A498 renal
PARAMETER_MEASURED: TGI
VALUE_MEASURED: 6.24 µM
--
COMPOUND: CC(C)CC(NC(=O)OC(C)(C)C)C(=O)NC(CC(=O)OCc1ccccc1)C(=O)OCc1ccccc1 (stereo not drawn) (Boc-Leu-Asp(OBn)-OBn; configuration not given here)
EXPERIMENTAL_SYSTEM: A498 renal
PARAMETER_MEASURED: TGI
VALUE_MEASURED: > 100 µM
--
COMPOUND: C=C/C(C)=C/C[C@]1(C)[C@H](C)[C@@H](OC(=O)CCC)[C@H](O)[C@@]23C(=C[C@H](OC)C[C@@H]12)[C@@H](OC(=O)CCC)O[C@H]3OC(C)=O
EXPERIMENTAL_SYSTEM: A498 renal
PARAMETER_MEASURED: TGI
VALUE_MEASURED: 0.645 µM
